assay: Degradation assay in freeze-thaw lysates, T. thermophila B2086.2; assay type: in vitro ADME; settings: cells or culture medium; freeze–thaw lysate of vegetative T. thermophila B2086.2 cells, 3 mg/mL total protein in PBS, no protease inhibitors, 10 μM reporter, 25 °C, CE-LIF, first-order fit; ± SD, 3 biological replicates
Non-standard residues stand in square brackets, D forms with d. Residues, ends and D or L forms follow the SMILES beside them. *: point of attachment. 6FAM = O=C1OC2(c3ccc(O)cc3Oc3cc(O)ccc32)c2cc(C(=O)*)ccc21; NMeR = CN[C@@H](CCCNC(=N)N)C(=O)O; NMeA = CN[C@@H](C)C(=O)O
endpoint_label: half-life (min)
The reply should be a number in min, with the unit left off.

Dear colleague, I am looking for the recorded half-life of the following compound: C[C@H](NC(=O)[C@H](CCCNC(=N)N)N(C)C(=O)[C@@H]1CCCN1C(=O)[C@H](CCCNC(=N)N)NC(=O)CNC(=O)c1ccc2c(c1)C1(OC2=O)c2ccc(O)cc2Oc2cc(O)ccc21)C(=O)N[C@@H](Cc1ccccc1)C(=O)N[C@H](C(=O)N[C@@H](Cc1ccccc1)C(=O)N(C)[C@@H](C)C(N)=O)[C@@H](C)O [VI–B] (6FAM-GRP[NMeR]AFTF[NMeA]-NH2)
22

---

assay: Degradation assay in freeze-thaw lysates, D. discoideum; type: in vitro ADME; details: freeze–thaw lysate of vegetative D. discoideum cells, 3 mg/mL total protein in PBS, no protease inhibitors, 10 μM reporter, 25 °C, CE-LIF, first-order fit; ± SD, 3 biological replicates
Residues, ends and D or L forms follow the SMILES beside them. *: point of attachment. 5FAM = O=C1OC2(c3ccc(O)cc3Oc3cc(O)ccc32)c2ccc(C(=O)*)cc21; 6FAM = O=C1OC2(c3ccc(O)cc3Oc3cc(O)ccc32)c2cc(C(=O)*)ccc21
Overview of recorded half-life at 10 μM for various molecules
The reply should be a number in h, with the unit left off.

molecule: C[C@H](NC(=O)[C@H](Cc1ccccc1)NC(=O)[C@H](CO)NC(=O)[C@H](CO)NC(=O)[C@@H](NC(=O)[C@H](CCCNC(=N)N)NC(=O)[C@@H]1CCCN1C(=O)[C@H](CCCNC(=N)N)NC(=O)CNC(=O)c1ccc2c(c1)C(=O)OC21c2ccc(O)cc2Oc2cc(O)ccc21)[C@@H](C)O)C(=O)N[C@@H](CCC(=O)O)C(=O)NCC(=O)O [Crosstide] (5FAM-GRPRTSSFAEG-OH)
quantity_unit: h
data_value: 1.95

Dear colleague, I am looking for the recorded half-life at 10 μM of the following molecule: C[C@H](NC(=O)[C@H](C)NC(=O)[C@H](CCCNC(=N)N)NC(=O)[C@@H]1CCCN1C(=O)[C@H](CCCNC(=N)N)NC(=O)CNC(=O)c1ccc2c(c1)C1(OC2=O)c2ccc(O)cc2Oc2cc(O)ccc21)C(=O)N[C@H](C(=O)N[C@@H](Cc1ccccc1)C(=O)N[C@@H](C)C(=O)N[C@@H](CCC(=O)O)C(=O)NCC(N)=O)[C@@H](C)O [B-5/I] (6FAM-GRPRAATFAEG-NH2)
0.85

---

experiment: Degradation assay in freeze-thaw lysates, D. discoideum; format: in vitro ADME; conditions: cells or culture medium; freeze–thaw lysate of vegetative D. discoideum cells, 3 mg/mL total protein in PBS, no protease inhibitors, 10 μM reporter, 25 °C, CE-LIF, first-order fit; ± SD, 3 biological replicates
Non-standard residues stand in square brackets, D forms with d. Residues, ends and D or L forms follow the SMILES beside them. *: point of attachment. 6FAM = O=C1OC2(c3ccc(O)cc3Oc3cc(O)ccc32)c2cc(C(=O)*)ccc21; NMeR = CN[C@@H](CCCNC(=N)N)C(=O)O; NMeA = CN[C@@H](C)C(=O)O
endpoint_label: half-life (h)
The reply should be a number in h, with the unit left off.

Dear colleague, I am looking for the recorded half-life of the following compound: C[C@H](NC(=O)[C@H](CCCNC(=N)N)N(C)C(=O)[C@@H]1CCCN1C(=O)[C@H](CCCNC(=N)N)NC(=O)CNC(=O)c1ccc2c(c1)C1(OC2=O)c2ccc(O)cc2Oc2cc(O)ccc21)C(=O)N[C@@H](Cc1ccccc1)C(=O)N[C@H](C(=O)N[C@@H](Cc1ccccc1)C(=O)N(C)[C@@H](C)C(N)=O)[C@@H](C)O [VI–B] (6FAM-GRP[NMeR]AFTF[NMeA]-NH2)
3.07
